PROTOCOL_NOTES: Stability of the active substance as a function of pH (% intact substance)
RUN_PARAMETERS: pH 4.5
VALUE_TYPE: remaining at 1 h (%)
Field: numeric (%). Do not append units.

Per the record, CC[C@H]1OC(=O)[C@H](C)[C@@H](O[C@H]2C[C@@](C)(OC)[C@@H](O)[C@H](C)O2)[C@H](C)[C@@H](O[C@@H]2O[C@H](C)C[C@H](N(C)C)[C@H]2O)[C@](C)(O)C[C@@H](C)C(=O)[C@H](C)[C@@H](O)[C@]1(C)O [erythromycin, reference compound] has remaining at 1 h of 50

###

PROTOCOL_NOTES: Stability of the active substance as a function of pH (% intact substance)
RUN_PARAMETERS: pH 4.5
VALUE_TYPE: remaining at 0.5 h (%)
Answer with a number only, understood to be in %.

So for CC[C@H]1OC(=O)[C@H](C)[C@@H](O[C@H]2C[C@@](C)(OC)[C@@H](O)[C@H](C)O2)[C@H](C)[C@@H](O[C@@H]2O[C@H](C)C[C@H](N(C)C)[C@H]2O)[C@](C)(O)C[C@@H](C)C(=O)[C@H](C)[C@@H](O)[C@]1(C)O [erythromycin, reference compound] , the logged remaining at 0.5 h turned out to be 55

###

PROTOCOL_NOTES: Stability of the active substance as a function of pH (% intact substance)
RUN_PARAMETERS: pH 8
VALUE_TYPE: remaining at 0.5 h
# output: number + unit

Entry CC[C@H]1OC(=O)[C@H](C)[C@@H](O[C@H]2C[C@@](C)(OC)[C@@H](O)[C@H](C)O2)[C@H](C)[C@@H](O[C@@H]2O[C@H](C)C[C@H](N(C)C)[C@H]2O)[C@](C)(O)C[C@@H](C)[C@@H]2NC(COCCOC)O[C@H]([C@H]2C)[C@]1(C)O (stereo partly shown) , remaining at 0.5 h reported as 95%

###

PROTOCOL_NOTES: Stability of the active substance as a function of pH (% intact substance)
RUN_PARAMETERS: pH 7
VALUE_TYPE: remaining at 0.5 h
Enter the number, and then the unit.

// sample CC[C@H]1OC(=O)[C@H](C)[C@@H](O[C@H]2C[C@@](C)(OC)[C@@H](O)[C@H](C)O2)[C@H](C)[C@@H](O[C@@H]2O[C@H](C)C[C@H](N(C)C)[C@H]2O)[C@](C)(O)C[C@@H](C)[C@@H]2NC(COCCOC)O[C@H]([C@H]2C)[C@]1(C)O (stereo partly shown) , its remaining at 0.5 h was 50%

###

PROTOCOL_NOTES: Stability of the active substance as a function of pH (% intact substance)
RUN_PARAMETERS: pH 1.3
VALUE_TYPE: remaining at 1 h
The number alone won't do; follow it with the unit.

remaining at 1 h in this record for CC[C@H]1OC(=O)[C@H](C)[C@@H](O[C@H]2C[C@@](C)(OC)[C@@H](O)[C@H](C)O2)[C@H](C)[C@@H](O[C@@H]2O[C@H](C)C[C@H](N(C)C)[C@H]2O)[C@](C)(O)C[C@@H](C)C(=O)[C@H](C)[C@@H](O)[C@]1(C)O [erythromycin, reference compound] : 10%

###

PROTOCOL_NOTES: Stability of the active substance as a function of pH (% intact substance)
RUN_PARAMETERS: pH 1
VALUE_TYPE: remaining at 0.5 h (%)
Field: numeric (%). Do not append units.

Form: compound = CC[C@H]1OC(=O)[C@H](C)[C@@H](O[C@H]2C[C@@](C)(OC)[C@@H](O)[C@H](C)O2)[C@H](C)[C@@H](O[C@@H]2O[C@H](C)C[C@H](N(C)C)[C@H]2O)[C@](C)(O)C[C@@H](C)[C@@H]2NC(COCCOC)O[C@H]([C@H]2C)[C@]1(C)O (stereo partly shown) [AS-E 136] ; remaining at 0.5 h = 10

###

PROTOCOL_NOTES: Stability of the active substance as a function of pH (% intact substance)
RUN_PARAMETERS: pH 6.5
VALUE_TYPE: remaining at 0.5 h (%)
The reply should be a number in %, with the unit left off.

Reported remaining at 0.5 h for CC[C@H]1OC(=O)[C@H](C)[C@@H](O[C@H]2C[C@@](C)(OC)[C@@H](O)[C@H](C)O2)[C@H](C)[C@@H](O[C@@H]2O[C@H](C)C[C@H](N(C)C)[C@H]2O)[C@](C)(O)C[C@@H](C)[C@@H]2NC(COCCOC)O[C@H]([C@H]2C)[C@]1(C)O (stereo partly shown) was 20

###

PROTOCOL_NOTES: Stability of the active substance as a function of pH (% intact substance)
RUN_PARAMETERS: pH 6
VALUE_TYPE: remaining at 0.5 h (%)
The answer is to be given in %; state only the numeric part.

Note to self: remaining at 0.5 h recorded for CC[C@H]1OC(=O)[C@H](C)[C@@H](O[C@H]2C[C@@](C)(OC)[C@@H](O)[C@H](C)O2)[C@H](C)[C@@H](O[C@@H]2O[C@H](C)C[C@H](N(C)C)[C@H]2O)[C@](C)(O)C[C@@H](C)[C@@H]2NC(COCCOC)O[C@H]([C@H]2C)[C@]1(C)O (stereo partly shown) was 20

###

PROTOCOL_NOTES: Stability of the active substance as a function of pH (% intact substance)
RUN_PARAMETERS: pH 7.5
VALUE_TYPE: remaining at 0.5 h (%)
Give the number; % is assumed, so skip it.

// remaining at 0.5 h value for CC[C@H]1OC(=O)[C@H](C)[C@@H](O[C@H]2C[C@@](C)(OC)[C@@H](O)[C@H](C)O2)[C@H](C)[C@@H](O[C@@H]2O[C@H](C)C[C@H](N(C)C)[C@H]2O)[C@](C)(O)C[C@@H](C)[C@@H]2NC(COCCOC)O[C@H]([C@H]2C)[C@]1(C)O (stereo partly shown) [AS-E 136] : 80

Data provenance: patent US4755385A
